biological target: PCSK9Δhelix (Homo sapiens); construct: Human PCSK9 construct M1-Q692 with an engineered TEV site (residue deletion Y166, R167); made in house; host or cells: CHO; test: PCSK9Δhelix/Ab20 TR-FRET binding assay; conditions: TR-FRET; Table 8D, disulfide-cyclized extension peptides; read-out: PCSK9Δhelix/Ab20 IC50
Bridge positions count the residues as written; N and C are the ends. Peptide text beside a SMILES is read from it.
Value Type: IC50 (µM)
Entry rule: numbers only, all in µM.

>>> data_value("CC[C@H](C)[C@@H]1NC(=O)[C@H](CCCNC(=N)N)NC(=O)[C@H](CCC(N)=O)NC(=O)[C@H](CC(C)C)NC(=O)[C@H](CC(N)=O)NC(=O)[C@H](Cc2c[nH]c3ccccc23)NC(=O)[C@@H]2CCCN2C(=O)[C@H](CC(C)C)NC(=O)[C@H](CCCNC(=N)N)NC(=O)[C@@H](NC(C)=O)CSSC[C@@H](C(N)=O)NC(=O)[C@@H]2CCCN2C(=O)[C@H](C)NC(=O)CNC1=O [Compound 69] (Ac-CRLPWNLQRIGAPC-NH2; disulfide 1-14)")
6.64

Now examine the next entry.
Q: GET /values?readout=IC50&system=PCSK9Δhelix (Homo sapiens)&item= CC[C@H](C)[C@@H]1NC(=O)[C@H](CCCNC(=N)N)NC(=O)[C@H](CCC(N)=O)NC(=O)[C@H](CC(C)C)NC(=O)[C@H](CC(N)=O)NC(=O)[C@H](C)NC(=O)[C@@H]2CCCN2C(=O)[C@H](CC(C)C)NC(=O)[C@H](CCCNC(=N)N)NC(=O)[C@@H](NC(C)=O)CSSC[C@@H](C(N)=O)NC(=O)[C@@H]2CCCN2C(=O)[C@H](CC(C)C)NC(=O)CNC1=O [Compound 76] (Ac-CRLPANLQRIGLPC-NH2; disulfide 1-14)
Result: 49.5

----------
# pIC50 values compiled below
target: PCSK9Δhelix (Homo sapiens, UniProt Q8NBP7); construct: Human PCSK9 construct M1-Q692 with an engineered TEV site (residue deletion Y166, R167); made in house; host or cells: CHO; experiment: PCSK9Δhelix/Ab20 TR-FRET binding assay; conditions: TR-FRET; Table 8D, disulfide-cyclized extension peptides; read-out: PCSK9Δhelix/Ab20 IC50
Sequence (Q8NBP7 with tags, fused parts or gaps limits assumed): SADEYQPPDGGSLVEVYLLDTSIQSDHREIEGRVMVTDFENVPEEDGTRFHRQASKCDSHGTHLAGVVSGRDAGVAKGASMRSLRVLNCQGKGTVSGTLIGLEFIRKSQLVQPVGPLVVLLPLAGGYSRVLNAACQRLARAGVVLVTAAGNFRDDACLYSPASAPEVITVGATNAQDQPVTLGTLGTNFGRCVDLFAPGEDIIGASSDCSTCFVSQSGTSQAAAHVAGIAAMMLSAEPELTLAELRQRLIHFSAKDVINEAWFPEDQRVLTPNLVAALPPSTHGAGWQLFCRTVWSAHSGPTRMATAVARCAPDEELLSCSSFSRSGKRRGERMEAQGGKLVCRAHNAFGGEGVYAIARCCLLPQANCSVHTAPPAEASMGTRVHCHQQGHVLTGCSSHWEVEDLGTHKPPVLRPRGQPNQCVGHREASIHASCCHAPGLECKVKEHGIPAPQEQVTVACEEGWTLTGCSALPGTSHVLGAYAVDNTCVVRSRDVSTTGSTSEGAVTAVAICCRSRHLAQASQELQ
Sequence (Q8NBP7 31-152 partner limits assumed): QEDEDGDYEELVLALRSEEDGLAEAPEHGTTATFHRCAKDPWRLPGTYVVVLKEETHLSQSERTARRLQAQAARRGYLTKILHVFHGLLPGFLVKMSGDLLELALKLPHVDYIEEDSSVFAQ
Bridge positions count the residues as written; N and C are the ends. Square brackets hold non-standard residues; d marks the D form. Peptide text beside a SMILES is read from it.
// pIC50 is dimensionless: -log10 of concentration (M)

>>> data_value("CC[C@H](C)[C@@H]1NC(=O)[C@H](CCCNC(=N)N)NC(=O)[C@H](CCC(N)=O)NC(=O)[C@H](CC(C)C)NC(=O)[C@H](C)NC(=O)[C@H](Cc2c[nH]c3ccccc23)NC(=O)[C@@H]2CCCN2C(=O)[C@H](CC(C)C)NC(=O)[C@H](CCCNC(=N)N)NC(=O)[C@@H](NC(C)=O)CSSC[C@@H](C(N)=O)NC(=O)[C@@H]2CCCN2C(=O)[C@H](CC(C)C)NC(=O)CNC1=O [Compound 75] (Ac-CRLPWALQRIGLPC-NH2; disulfide 1-14)")
4.31
>>> data_value("CC[C@H](C)[C@@H]1NC(=O)[C@H](CCCNC(=N)N)NC(=O)[C@H](CCC(N)=O)NC(=O)[C@H](CC(C)C)NC(=O)[C@H](CC(N)=O)NC(=O)[C@H](Cc2c[nH]c3ccccc23)NC(=O)[C@@H]2CCCN2C(=O)[C@H](CC(C)C)NC(=O)[C@H](CCCNC(=N)N)NC(=O)[C@@H](NC(C)=O)CSSC[C@@H](C(N)=O)NC(=O)[C@H]2CCCN2C(=O)[C@H](CC(C)C)NC(=O)CNC1=O [Compound 99] (Ac-CRLPWNLQRIGL[dP]C-NH2; disulfide 1-14)")
5.89

Q: Value lookup for pIC50; key = CC[C@H](C)[C@@H]1NC(=O)[C@H](CCCNC(=N)N)NC(=O)[C@H](CCC(N)=O)NC(=O)[C@H](CC(C)C)NC(=O)[C@H](CC(N)=O)NC(=O)[C@H](Cc2c[nH]c3ccccc23)NC(=O)[C@@H]2CCCN2C(=O)[C@@H](CC(C)C)NC(=O)[C@H](CCCNC(=N)N)NC(=O)[C@@H](NC(C)=O)CSSC[C@@H](C(N)=O)NC(=O)[C@@H]2CCCN2C(=O)[C@H](CC(C)C)NC(=O)CNC1=O [Compound 108] (Ac-CR[dL]PWNLQRIGLPC-NH2; disulfide 1-14)
Result: 4.55

All figures here come from patent US11034725B2.
